From: PubChem BioAssay (NCI)

- System: RPMI-8226 leukemia
- assay_summary: NCI-60 one-dose screen, 48 h (100 = growth as untreated, 0 = no growth, -100 = all killed)
- experimental_context: 10 µM unless noted
The panel holds about 83,000 compounds, 20% with a hit somewhere; the sample as a whole holds those more often.
# reported growth; entries follow

compound: Cn1cc(-c2nc(-c3cn(C)c4ncccc34)cs2)c2ccccc21
unit_descriptor: %
growth: 39.6
--
compound: c1ccc2[nH]c(-c3cc(-c4ccc5c(c4)OCO5)n[nH]3)nc2c1
unit_descriptor: %
growth: 7.45
--
compound: CCOC(=O)C1OC1(c1ccccc1)c1ccccc1 (stereo not drawn)
unit_descriptor: %
growth: 95.6
--
compound: COc1cccc2c1C(=O)c1c(O)c3c(c(O)c1C2=O)C[C@@](O)(C(=O)CO)C[C@@H]3OC1C[C@H](N)[C@H](O)[C@H](C)O1 (stereo partly drawn)
unit_descriptor: %
growth: 0.341
--
compound: COC(=O)[C@]12CC[C@@H](C)[C@H](C)[C@@H]1C1=CC[C@@H]3[C@@]4(C)C(c5ncon5)=C[C@@](C)(CO)C4=CC[C@@]3(C)[C@]1(C)CC2
unit_descriptor: %
growth: -32.4
--
compound: O=S(=O)(NCCNc1cc(-c2cn(-c3ccccc3)nc2-c2cccc(O)c2)ccn1)c1ccc(C(F)(F)F)cc1
unit_descriptor: %
growth: 18.5
--
compound: O=S(=O)(NCCNc1cc(-c2cn(-c3ccccc3)nc2-c2cccc(O)c2)ccn1)c1ccc(F)cc1
unit_descriptor: %
growth: 9.5
--
compound: COc1cc(NC(C)CN(CC(C)C)C(C)C)c2ncccc2c1 (stereo not drawn)
unit_descriptor: %
growth: 102
--
compound: N#CC1=C(N)Oc2c(sc3c(F)cccc23)C1c1ccc(Cl)cc1 (stereo not drawn)
unit_descriptor: %
growth: 10.6
--
compound: COC(=O)C(N)CSC(c1ccccc1)(c1ccccc1)c1ccccc1 (stereo not drawn)
unit_descriptor: %
growth: 30.9
--
compound: COc1cccc(NC(=O)c2sc3nc4c(cc3c2N)C(=O)CCC4)c1
unit_descriptor: %
growth: 0.464
--
compound: Fc1ccc(Nc2nnc(-c3ccc(Cl)cc3)o2)cc1
unit_descriptor: %
growth: 99.8
--
compound: CC1(C)C(=O)/C(=C\c2ccccn2)C[C@]2(C)[C@H]3CC[C@@H]4[C@@H](C(=O)/C=C/c5ccccn5)CC[C@@]4(C)[C@]3(C)CC[C@@H]12
unit_descriptor: %
growth: -5.71
--
compound: COc1ccc2c(c1)c(-c1nc(-c3c[nH]c4ncccc34)cs1)cn2CCN
unit_descriptor: %
growth: 52.7
--
compound: Cc1ccc2oc(=O)cc(-c3sc(N4CCCCC4)nc3-c3ccccc3)c2c1
unit_descriptor: %
growth: 99.9
--
compound: COc1cccc(-c2nn(-c3ccccc3)cc2-c2ccnc(NCCNS(=O)(=O)c3ccc(Cl)cc3)c2)c1
unit_descriptor: %
growth: 9
--
compound: O=C1NC(=Nc2ccc(S(=O)(=O)Nc3nccs3)cc2)S/C1=C\c1coc2ccccc2c1=O
unit_descriptor: %
growth: 101
--
compound: COc1ccc2c(c1)c(-c1nc(-c3c[nH]c4ncccc34)cs1)cn2C
unit_descriptor: %
growth: 44.3
--
compound: NCCn1cc(-c2nc(-c3c[nH]c4ncccc34)cs2)c2cc(F)ccc21
unit_descriptor: %
growth: 59.2
--
compound: O=[N+]([O-])c1cc(S(=O)(=O)c2ccc(F)c([N+](=O)[O-])c2)ccc1F
unit_descriptor: %
growth: 6.35
--
compound: Cc1cc(C)c(NC(=O)c2sc3nc4c(cc3c2N)CCCC4)c(C)c1
unit_descriptor: %
growth: 55.2
--
compound: Cn1cc(-c2nc(-c3c[nH]c4ncccc34)cs2)c2cc(F)ccc21
unit_descriptor: %
growth: 36.4
--
compound: CCC(=O)c1c(C)[nH]c(C)c1C
unit_descriptor: %
growth: 113

---

- System: HS 578T breast
- assay_summary: NCI-60 one-dose screen, 48 h (100 = growth as untreated, 0 = no growth, -100 = all killed)
- experimental_context: 10 µM unless noted
Compounds without any hit were thinned out: in the full panel of roughly 83,000, 20% have a hit.
# reported growth; entries follow

molecule: COc1ccc(-c2nc(Nc3ccc(-c4nc5ccccc5[nH]4)cc3)nc(N3CCOCC3)n2)cc1
tested_on: HS 578T breast
growth (%): -11.9
//
molecule: NCCn1cc(-c2nc(-c3c[nH]c4ncccc34)cs2)c2cc(F)ccc21
tested_on: HS 578T breast
growth (%): 81.9
//
molecule: Nc1ccc(Br)cn1
tested_on: HS 578T breast
growth (%): 99.5
//
molecule: Cn1c(/C(C#N)=C/c2ccc3ccccc3c2)cc2ccccc21
tested_on: HS 578T breast
growth (%): 23.8
//
molecule: COc1ccc(NC(=S)N/N=C/c2ccccc2SSCCC(=O)OC[C@H]2O[C@H](O)[C@H](O)[C@@H](O)[C@@H]2O)cc1
tested_on: HS 578T breast
growth (%): 91.6
//
molecule: C=C1C(=O)O[C@H]2[C@H]1CC/C(Cn1cc(-c3ccc(OC)cc3)nn1)=C\CC[C@@]1(C)O[C@@H]21
tested_on: HS 578T breast
growth (%): 75.6
//
molecule: Cc1cc(Cl)nc(N(CCCNc2ccnc3cc(Cl)ccc23)Cc2ccco2)n1
tested_on: HS 578T breast
growth (%): 58.8
//
molecule: O=[N+]([O-])c1cc(S(=O)(=O)c2ccc(F)c([N+](=O)[O-])c2)ccc1F
tested_on: HS 578T breast
growth (%): 80.6
//
molecule: COc1cc2nc(Cl)nc(Nc3cccc(C(=O)/C=C/c4ccc(F)cc4)c3)c2cc1OC
tested_on: HS 578T breast
growth (%): 101
//
molecule: COc1ccc2c(c1)C/C(=C\c1cc(-c3cc(OC)c(OC)c(OC)c3)n[nH]1)C2=O
tested_on: HS 578T breast
growth (%): 91.8
//
molecule: C=C(C)[C@@H]1CC[C@]2(C(=O)NNC(=O)c3cccnc3)CC[C@]3(C)[C@H](CC[C@@H]4[C@@]5(C)CCCNC(C)(C)[C@@H]5CC[C@]43C)[C@@H]12
tested_on: HS 578T breast
growth (%): 67.3
//
molecule: COc1ccc(C(=O)c2cc(OC)c(OC)c(OC)c2)cc1/C=C/C(=O)c1cc(OC)c(OC)c(OC)c1
tested_on: HS 578T breast
growth (%): 82.4
//
molecule: COc1ccc(/C=C/C(=O)NCC(C)O)cc1 (stereo not given)
tested_on: HS 578T breast
growth (%): 94.4
//
molecule: COc1cc2c(cc1-c1c(C)noc1C)ncc1nc(C3CCCCC3)n([C@@H](C)COC(F)F)c12
tested_on: HS 578T breast
growth (%): 14.3
//
molecule: Cn1c2c(Cl)c(Cl)ccc2c2c(C#N)c[nH]c(=O)c21
tested_on: HS 578T breast
growth (%): 84.5

---

# reported growth; entries follow
- Test system: ACHN renal
- assay_summary: NCI-60 one-dose screen, 48 h (100 = growth as untreated, 0 = no growth, -100 = all killed)
- experimental_context: 10 µM unless noted
- Procedure: Growth inhibition of the ACHN human tumor cell line is measured as a screen for anti-cancer activity. Cells are grown in 96 well plates and exposed to the test compound for 48 hours. Compounds are tested at a single concentration, which is 10^-5 M for most compounds. The reported endpoint is percent growth (GI% or GIPRCNT), where numbers from 0 - 100% represent growth inhibition, and numbers from -100% - 0 represent cell death. For example, a value of 40 represents 60% growth inhibition. […]
The panel holds about 83,000 compounds, 20% with a hit somewhere; the sample as a whole holds those more often.

mol: O=P(O)(c1ccccc1)c1ccccc1I
tested_on: ACHN renal
growth / %: 106
//
mol: C=C(C)[C@@H]1CC[C@]2(C(=O)O)CC[C@]3(C)[C@H](CC[C@@H]4[C@@]5(C)C/C(=C/c6cccc(I)c6)C(=O)C(C)(C)[C@@H]5CC[C@]43C)[C@@H]12
tested_on: ACHN renal
growth / %: 30.5
//
mol: C=C(C)[C@@H]1CC[C@]2(CN)CC[C@]3(C)[C@H](CC[C@@H]4[C@@](C)(CCCN)[C@H](C(=C)C)CC[C@]43C)[C@@H]12
tested_on: ACHN renal
growth / %: 99.1

---

- System: OVCAR-5 ovarian
- assay_summary: NCI-60 one-dose screen, 48 h (100 = growth as untreated, 0 = no growth, -100 = all killed)
- experimental_context: 10 µM unless noted
The panel holds about 83,000 compounds, 20% with a hit somewhere; the sample as a whole holds those more often. The source made the active and inactive calls. The calls were made as follows: active = growth percent below 10; inactive = the rest.

compound: COC(c1ccccc1)(c1ccccc1)c1ccccc1
growth: 113% (inactive)
//
compound: O=[N+]([O-])c1cc(S(=O)(=O)c2ccc(F)c([N+](=O)[O-])c2)ccc1F
growth: 122% (inactive)
//
compound: Cc1cc(C=O)c(C)c2c1[nH]c1ccccc12
growth: 62.4% (inactive)
//
compound: Nc1c2c(nc3ccc(Br)cc13)CC(c1ccccc1)CC2=O (configuration not stated)
growth: 49.2% (inactive)
//
compound: CCOc1ccc(NC(=O)c2ccoc2COc2ccccc2)cc1
growth: 103% (inactive)
//
compound: Fc1ccc(Nc2ccc3c(OCCCN4CCOCC4)cccc3n2)cc1F
growth: 67.8% (inactive)
//
compound: CCCCC[C@H]1C/C=C2/C(=O)C(Cl)=C[C@@H]2C/C=C\CCCC(=O)O1
growth: -64.9% (active)
//
compound: O=C1/C(=C\c2ccc(Br)o2)SC(=S)N1CCc1ccc(O)cc1
growth: 80% (inactive)
//
compound: C(=C\c1c[nH]c2ccccc12)/c1ccc2ccccc2n1
growth: 121% (inactive)
//
compound: Cc1ccc(S(=O)(=O)Nc2ccc(-c3cc(-c4cccc(F)c4)c(C#N)c(=O)[nH]3)cc2)cc1
growth: 99.9% (inactive)
//
compound: Cc1cc(N(CCCNc2ccnc3cc(Cl)ccc23)Cc2ccco2)nc(N2CCOCC2)n1
growth: 79% (inactive)
//
compound: C=C(C)[C@@H]1CC[C@]2(C)CC[C@]3(C)[C@H](CC[C@@H]4[C@@]5(C)CCCNC(C)(C)[C@@H]5CC[C@]43C)[C@@H]12
growth: 107% (inactive)
//
compound: CCCCC[C@H]1CC=C2C(=O)C=C[C@@H]2CC=CCCCC(=O)O[C@@H](CCCCC)CC=C2C(=O)C=C[C@@H]2CC=CCCCC(=O)O[C@@H](CCCCC)CC=C2C(=O)C=C[C@@H]2CC=CCCCC(=O)O1
growth: -23.7% [8.75 µM] (active)
//
compound: O=[N+]([O-])c1cccc(/C=N\Nc2ccccc2)c1
growth: 74.7% (inactive)
//
compound: Cc1cc(C)nc(NC(N)=NCCc2ccccc2)n1
growth: 72% (inactive)
//
compound: Cc1ccc(S(=O)(=O)Nc2ccc(-c3cc(-c4cccc(F)c4)c(C#N)c(N)n3)cc2)cc1
growth: 45.5% (inactive)
//
compound: CC(C)(C)c1ccc(OP(=S)(N/N=C/c2ccccc2O)Oc2ccc(C(C)(C)C)cc2)cc1
growth: 91.6% (inactive)
//
compound: Nc1nc2c3ccncc3cc(-c3cccc(Cl)c3)c2c2cnccc12
growth: 61.2% (inactive)
//
compound: COc1cc(-c2cc3ncccc3c3nc(OCCN(C)C)c4cccnc4c23)cc(OC)c1OC
growth: 44.8% (inactive)
//
compound: N#CC1=C(N)Oc2ccc3ccccc3c2C1c1ccccc1Cl (configuration not stated)
growth: 77.2% (inactive)
//
compound: NC1(N)C=CC2=C(C=C1)C1(N)C3=C(C=CC(N)(N)C=C3)N2C2(N)C3=C(C=CC(N)(N)C=C3)N1C1=C2C=CC(N)(N)C=C1
growth: 105% (inactive)
//
compound: COC(=O)[C@]12CC[C@@H](C)[C@H](C)[C@@H]1C1=CC[C@@H]3[C@@]4(C)C[C@@H](OC(C)=O)[C@H](O)[C@@](C)(CO)[C@@H]4[C@H](O)C[C@@]3(C)[C@]1(C)CC2
growth: -78.2% (active)
//
compound: C=C(C)[C@@H]1CC[C@]2(c3nnc(-c4ccncc4)o3)CC[C@]3(C)[C@H](CC[C@@H]4[C@@]5(C)CCC(=O)NC(C)(C)[C@@H]5CC[C@]43C)[C@@H]12
growth: 112% (inactive)
//
compound: Nc1c2c(nc3ccc(Cl)cc13)CC(c1ccc(O)cc1)CC2=O (configuration not stated)
growth: 91.9% (inactive)
//
compound: Fc1ccc2c(c1)c(-c1nc(-c3c[nH]c4ncccc34)cs1)cn2CCCN1CCCCC1
growth: 88.3% (inactive)
//
compound: Cc1ccc(N(CC(=O)Nc2ccc(S(=O)(=O)N3CCC(N4CCCC4)CC3)cc2)S(=O)(=O)c2ccc(Cl)cc2)cc1
growth: 88% (inactive)
//
compound: O=C1NC(c2ccc(Cl)c(Cl)c2)=C/C1=C\c1ccccc1
growth: 73.2% (inactive)
//
compound: O=C1NC(=Nc2ccc(S(=O)(=O)Nc3nccs3)cc2)S/C1=C\c1coc2ccccc2c1=O
growth: 121% (inactive)
//
compound: C=C1C(=O)O[C@H]2[C@H]1CC/C(COC(=O)NCc1cc3ccccc3[nH]1)=C\CC[C@@]1(C)O[C@@H]21
growth: 26.2% (inactive)
//
compound: Cc1cc(N2CCCC2)nc(N(CCNc2ccnc3cc(Cl)ccc23)Cc2ccco2)n1
growth: 25.3% (inactive)
//
compound: O=C(Nc1ccc(/C=C2\SC(=O)N(Cc3ccc(OC(F)(F)F)cc3)C2=O)cc1)c1ccc(Cl)c([N+](=O)[O-])c1
growth: 85.5% (inactive)
//
compound: NCCNc1nc(-c2ccccc2)nc2nc(-c3ccccc3)oc12
growth: 105% (inactive)
